Target: MAPRE1 in the presence of FKBP12 (Homo sapiens, UniProt P62942+Q15691)
Construct: His-tag (N)
Sequence (Q15691 whole entry): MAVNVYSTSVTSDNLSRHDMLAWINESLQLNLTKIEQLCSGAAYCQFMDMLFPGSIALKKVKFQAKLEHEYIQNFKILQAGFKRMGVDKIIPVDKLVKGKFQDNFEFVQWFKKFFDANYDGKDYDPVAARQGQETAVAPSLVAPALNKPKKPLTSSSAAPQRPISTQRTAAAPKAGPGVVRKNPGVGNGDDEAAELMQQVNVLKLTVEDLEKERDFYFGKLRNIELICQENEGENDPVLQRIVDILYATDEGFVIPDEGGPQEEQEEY
Sequence (P62942 whole entry): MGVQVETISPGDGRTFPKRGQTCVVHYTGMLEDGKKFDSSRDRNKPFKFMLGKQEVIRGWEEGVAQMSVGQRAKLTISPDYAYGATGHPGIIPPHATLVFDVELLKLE
Test: Spectral shift target engagement assay, binding to MAPRE1 in the presence of 10 μM FKBP12 (ternary)
Conditions: difference between EC50 of the %Tbound, ternary curve and KT,2; [Ttot] = 5 nM
Listing of entries alongside the reported 100 × (EC50 %Tbound ternary − 0.5 [Ttot] − KT,2)/KT,2.
observed property: 100 × (EC50 %Tbound ternary − 0.5 [Ttot] − KT,2)/KT,2 (%)

molecule="C=C1CCN2C(=O)COc3cccc(c3)C(CCc3ccc(OC)c(OC)c3)OC(=O)C3CCCCN3C(=O)C(=O)C(C)(C)COC(=O)C(C)NC(=O)C2C1 (stereo not drawn)" system_name="MAPRE1 in the presence of FKBP12 (Homo sapiens, UniProt P62942+Q15691)" unit_tag=% reported=0.3
molecule="C=C1CCN2C(=O)COc3cccc(c3)C(CCc3ccc(OC)c(OC)c3)OC(=O)C3CCCCN3C(=O)C(=O)C(C)(C)COC(=O)C3(CC3)NC(=O)C2C1 (stereo not drawn)" system_name="MAPRE1 in the presence of FKBP12 (Homo sapiens, UniProt P62942+Q15691)" unit_tag=% reported=2.6
molecule="C=C1CCN2C(=O)COc3cccc(c3)C(CCc3ccc(OC)c(OC)c3)OC(=O)C3CCCCN3C(=O)C(=O)C(C)(C)COC(=O)C(CO)NC(=O)C2C1 (stereo not drawn)" system_name="MAPRE1 in the presence of FKBP12 (Homo sapiens, UniProt P62942+Q15691)" unit_tag=% reported=0

====

Target: FKBP12 (Homo sapiens)
Sequence (P62942 whole entry, species assumed): as the sequence (P62942 whole entry) above
pKd: −log10 of the molar value.
Label rule, in plain words: pKd of 7 and up is rule met, under 7 is rule not met.

molecule="C=C1CCN2C(=O)COc3cccc(c3)C(CCc3ccc(OC)c(OC)c3)OC(=O)C3CCCCN3C(=O)C(=O)C(C)(C)COC(=O)C(CO)NC(=O)C2C1 (centres unmarked) [R,S-SLF-6]" system_name="FKBP12 (Homo sapiens)" assigned_class="rule met"
molecule="C=C1CCN2C(=O)COc3cccc(c3)C(CCc3ccc(OC)c(OC)c3)OC(=O)C3CCCCN3C(=O)C(=O)C(C)(C)COC(=O)C(C)NC(=O)C2C1 (centres unmarked) [S,S-SLF-1d]" system_name="FKBP12 (Homo sapiens)" assigned_class="rule met"
molecule="C=C1CCN2C(=O)COc3cccc(c3)C(CCc3ccc(OC)c(OC)c3)OC(=O)C3CCCCN3C(=O)C(=O)C(C)(C)COC(=O)C(CN)NC(=O)C2C1 (centres unmarked) [R,S-SLF-7]" system_name="FKBP12 (Homo sapiens)" assigned_class="rule not met"
molecule="C=C1CCN2C(=O)COc3cccc(c3)C(CCc3ccc(OC)c(OC)c3)OC(=O)C3CCCCN3C(=O)C(=O)C(C)(C)COC(=O)C3(CC3)NC(=O)C2C1 (centres unmarked) [R,--SLF-11]" system_name="FKBP12 (Homo sapiens)" assigned_class="rule not met"
molecule="COc1ccc(CCC2OC(=O)C3CCCCN3C(=O)C(=O)C(C)(C)COC(=O)C(C)NC(=O)C3CC(O)CN3C(=O)COc3cccc2c3)cc1OC (centres unmarked) [R,S-SLF-12]" system_name="FKBP12 (Homo sapiens)" assigned_class="rule met"

====

Target: MAPRE1 in the presence of FKBP12 (Homo sapiens, UniProt P62942+Q15691)
Construct: His-tag (N)
Experiment: Spectral shift target engagement assay, binding to MAPRE1 in the presence of 10 μM FKBP12 (ternary)
Settings: from KC,1, KT,1 and EC50 of the %Tbound, ternary curve with the mathematical model; [Ctot] = 10,000 nM, [Ttot] = 5 nM
observed property: Intrinsic cooperativity α

molecule="C=C1CCN2C(=O)COc3cccc(c3)C(CCc3ccc(OC)c(OC)c3)OC(=O)C3CCCCN3C(=O)C(=O)C(C)(C)COC(=O)C(C(F)(F)F)NC(=O)C2C1 (centres unmarked)" system_name="MAPRE1 in the presence of FKBP12 (Homo sapiens, UniProt P62942+Q15691)" reported=1509
molecule="C=C1CCN2C(=O)COc3cccc(c3)C(CCc3ccc(OC)c(OC)c3)OC(=O)C3CCCCN3C(=O)C(=O)C(C)(C)COC(=O)C(C)NC(=O)C2C1 (centres unmarked) [R,S-SLF-1a]" system_name="MAPRE1 in the presence of FKBP12 (Homo sapiens, UniProt P62942+Q15691)" reported=1951
molecule="C=C1CCN2C(=O)COc3cccc(c3)C(CCc3ccc(OC)c(OC)c3)OC(=O)C3CCCCN3C(=O)C(=O)C(C)(C)COC(=O)C(C)(C)NC(=O)C2C1 (centres unmarked)" system_name="MAPRE1 in the presence of FKBP12 (Homo sapiens, UniProt P62942+Q15691)" reported=5405
molecule="C=C1CCN2C(=O)COc3cccc(c3)C(CCc3ccc(OC)c(OC)c3)OC(=O)C3CCCCN3C(=O)C(=O)C(C)(C)COC(=O)C(CC)NC(=O)C2C1 (centres unmarked)" system_name="MAPRE1 in the presence of FKBP12 (Homo sapiens, UniProt P62942+Q15691)" reported=2200
molecule="C=C1CCN2C(=O)COc3cccc(c3)C(CCc3ccc(OC)c(OC)c3)OC(=O)C3CCCCN3C(=O)C(=O)C(C)(C)COC(=O)C(CO)NC(=O)C2C1 (centres unmarked)" system_name="MAPRE1 in the presence of FKBP12 (Homo sapiens, UniProt P62942+Q15691)" reported=4484
molecule="C=C1CCN2C(=O)COc3cccc(c3)C(CCc3ccc(OC)c(OC)c3)OC(=O)C3CCCCN3C(=O)C(=O)C(C)(C)COC(=O)C(CN)NC(=O)C2C1 (centres unmarked)" system_name="MAPRE1 in the presence of FKBP12 (Homo sapiens, UniProt P62942+Q15691)" reported=237
